Target: Bromodomain-containing protein 4 (Homo sapiens) (UniProt O60885)
Conditions: Compound concentration 20.0 uM, Protein concentration 2.0 uM, Result type QC Liability
In this section we review reported ΔTm values for a set of compounds.
Entry rule: numbers only, all in °C.

Study these solved cases before continuing.
[[record]]
structure_smiles_string = "C/C(=C\\C(=O)Nc1ccccc1C(=O)O)c1ccc2ccccc2c1"
experimental_readout = "ΔTm"
units = "°C"
observed = -0.82

[[record]]
structure_smiles_string = "CCN1C(=O)c2cc(C)ccc2N(C)c2ncccc21"
experimental_readout = "ΔTm"
units = "°C"
observed = -1.19

[[record]]
structure_smiles_string = "CS(=O)(=O)CCNCc1ccc(-c2ccc3ncnc(Nc4ccc(OCc5cccc(F)c5)c(Cl)c4)c3c2)o1"
experimental_readout = "ΔTm"
units = "°C"
observed = -2.54


Now, please, on to the next compound.
query: Give the measured ΔTm of C#Cc1cnc2[nH]cc(-c3cccc4c3CCN4C(=O)[C@@H]3CCCN3C#N)c2c1 .
result: -0.57

###

Target: Transcription intermediary factor 1-alpha (Homo sapiens) (UniProt O15164)
Sequence (O15164 whole entry): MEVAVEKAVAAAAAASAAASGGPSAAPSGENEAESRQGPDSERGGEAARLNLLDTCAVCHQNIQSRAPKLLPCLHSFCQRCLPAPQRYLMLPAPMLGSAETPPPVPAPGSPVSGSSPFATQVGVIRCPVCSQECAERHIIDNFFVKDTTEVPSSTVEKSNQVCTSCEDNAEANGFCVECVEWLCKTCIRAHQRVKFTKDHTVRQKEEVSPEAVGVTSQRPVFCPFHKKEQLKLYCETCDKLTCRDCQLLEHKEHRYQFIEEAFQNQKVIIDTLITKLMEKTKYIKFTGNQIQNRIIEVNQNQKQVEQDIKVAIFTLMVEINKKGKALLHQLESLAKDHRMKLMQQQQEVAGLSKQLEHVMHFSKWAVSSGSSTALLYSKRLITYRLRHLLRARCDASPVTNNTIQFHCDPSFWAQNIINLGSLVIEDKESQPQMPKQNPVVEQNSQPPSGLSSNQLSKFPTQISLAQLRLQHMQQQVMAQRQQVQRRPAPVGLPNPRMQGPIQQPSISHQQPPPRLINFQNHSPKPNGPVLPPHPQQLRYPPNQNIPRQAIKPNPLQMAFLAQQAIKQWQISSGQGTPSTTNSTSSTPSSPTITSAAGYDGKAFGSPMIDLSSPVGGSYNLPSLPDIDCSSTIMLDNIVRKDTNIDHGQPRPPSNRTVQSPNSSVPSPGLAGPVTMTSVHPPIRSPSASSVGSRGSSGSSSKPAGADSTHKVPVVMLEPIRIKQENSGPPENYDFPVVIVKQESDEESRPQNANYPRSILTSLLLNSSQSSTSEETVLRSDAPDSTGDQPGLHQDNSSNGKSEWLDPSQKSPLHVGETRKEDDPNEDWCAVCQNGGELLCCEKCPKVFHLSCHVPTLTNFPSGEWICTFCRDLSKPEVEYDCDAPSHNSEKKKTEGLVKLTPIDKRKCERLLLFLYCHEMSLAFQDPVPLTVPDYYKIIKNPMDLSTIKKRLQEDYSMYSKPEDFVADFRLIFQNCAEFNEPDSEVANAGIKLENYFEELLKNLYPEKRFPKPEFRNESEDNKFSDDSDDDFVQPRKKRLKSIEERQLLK
Settings: Compound concentration 20.0 uM, Protein concentration 2.0 uM, Result type QC Liability
true if ΔTm is below -1 °C. false if not; exact matches included in false.

[[record]]
compound = "CSc1ccc(C(=O)/C=C/c2cc(C)c(OC(C)(C)C(=O)O)c(C)c2)cc1"
system_tested = "Transcription intermediary factor 1-alpha (Homo sapiens) (UniProt O15164)"
assigned_label = "true"

[[record]]
compound = "CC1(C)C(=O)N([C@H]2CCc3c(O)cccc32)c2nc(Nc3cccc(CN4CCCC4)c3)ncc21"
system_tested = "Transcription intermediary factor 1-alpha (Homo sapiens) (UniProt O15164)"
assigned_label = "true"

[[record]]
compound = "C[C@@H]1CN(CC(=O)N2CC(C)(C)c3nc(CO)c(Cc4ccc(F)cc4)cc32)[C@@H](CN2CCOC[C@H]2C)CN1"
system_tested = "Transcription intermediary factor 1-alpha (Homo sapiens) (UniProt O15164)"
assigned_label = "false"

[[record]]
compound = "CC[C@H](CO)Nc1nc(Nc2cccc(-c3ccccn3)c2)c2ncn(C(C)C)c2n1"
system_tested = "Transcription intermediary factor 1-alpha (Homo sapiens) (UniProt O15164)"
assigned_label = "true"

[[record]]
compound = "O=C1CN(c2ccccc2F)C(NCCN2CCOCC2)=C1c1nc2cc(Br)ccc2c(=O)[nH]1"
system_tested = "Transcription intermediary factor 1-alpha (Homo sapiens) (UniProt O15164)"
assigned_label = "false"


Turning now to a further record.
query: Does the reported ΔTm of COC1(C#Cc2ccc(Cl)c(-c3ncc4c(n3)-c3sc(NC(C)=O)nc3CC4)c2)CCN(C)CC1 stay below -1 °C?
result: true

###

Molecular target: Bromodomain-containing protein 4 (Homo sapiens)
Conditions: Compound concentration 20.0 uM, Protein concentration 2.0 uM, Result type QC Liability
EXPERIMENTAL READOUT: ΔTm (°C)
Entry rule: numbers only, all in °C.

[[record]]
molecule = "CC1CN(CC(=O)N2CC(C)(C)c3nc(CO)c(Cc4ccc(F)cc4)cc32)C(CN2CCOCC2C)CN1 (stereo not drawn)"
system_tested = "Bromodomain-containing protein 4 (Homo sapiens)"
observed = -2.32

[[record]]
molecule = "COCCCS(=O)(=O)c1cc(C)c(-c2ccc(F)c3c2CC[C@H]3Oc2ccc3c(c2)OC[C@H]3CC(=O)O)c(C)c1"
system_tested = "Bromodomain-containing protein 4 (Homo sapiens)"
observed = -0.25


query: Give the measured ΔTm of CN[C@@H](C)C(=O)N[C@H](C(=O)N1CCC[C@H]1C(=O)Nc1sc(-c2ncco2)nc1-c1ccccc1)C1CCCCC1 .
result: -2.68

###

Target: Transcription intermediary factor 1-alpha (Homo sapiens) (UniProt O15164)
Details: Compound concentration 20.0 uM, Protein concentration 2.0 uM, Result type QC Liability
EXPERIMENTAL READOUT: ΔTm (°C)
Entry rule: numbers only, all in °C.

Study these solved cases before continuing.
[[record]]
compound = "CN(CC(=O)Nc1ccc(F)c(F)c1F)C(=O)c1ccc2c(c1)OCCO2"
experimental_readout = "ΔTm"
observed = -2.59

[[record]]
compound = "CCOC(=O)Nc1ccc2c(c1)N(C(=O)CN(CC)CC)c1ccccc1CC2"
experimental_readout = "ΔTm"
observed = -1.69

[[record]]
compound = "O=C(Nc1cc2cc[nH]c(=O)c2cc1Cl)[C@H]1CNC[C@@H]1c1cccnc1"
experimental_readout = "ΔTm"
observed = -2.69

[[record]]
compound = "Cn1cc(Nc2nccc(N3CC4CCC(C3)N4C(=O)[C@@H]3CC3(F)F)n2)cn1"
experimental_readout = "ΔTm"
observed = -1.71

[[record]]
compound = "COc1cc(F)ccc1-c1ncnc(Nc2cccc(C[S@](C)(=N)=O)c2)n1"
experimental_readout = "ΔTm"
observed = -1.99

[[record]]
compound = "CC[C@H](NC(=O)[C@H](C)NC)C(=O)N1C[C@@H](O)C[C@H]1Cc1c(-c2[nH]c3cc(F)ccc3c2C[C@@H]2C[C@H](O)CN2C(=O)[C@H](CC)NC(=O)[C@H](C)NC)[nH]c2cc(F)ccc12"
experimental_readout = "ΔTm"
observed = -3.97


query: Give the measured ΔTm of NCc1ccc(OCCCc2sc(-c3ccc4c(c3)/C(=N/Nc3nc5ccccc5s3)CCC4)nc2C(=O)O)cc1 .
result: -0.58

query: Give the measured ΔTm of COc1ccccc1[C@@H]1CNCCC12CCN(C(=O)[C@](OC)(c1ccccc1)C(F)(F)F)CC2 .
result: 0.2

query: Give the measured ΔTm of CN(C1CCc2c(c3ccccc3n2CC(=O)O)C1)S(=O)(=O)c1ccc(F)cc1 (centres undefined) .
result: -0.54

query: Give the measured ΔTm of Cn1ccc(Cn2cnc(-c3ccc(F)cc3)c2-c2ccnc3[nH]ccc23)n1 .
result: -3.2

query: Give the measured ΔTm of C/C=C1\C(=O)CC2C3CCC4=CC(=O)CC[C@]4(C)C3CC[C@]12C (some centres undefined) .
result: -2.32

query: Give the measured ΔTm of O=C1COc2cc(C(=O)N(Cc3ccc(C(=O)Nc4ccncn4)cc3)C3CC3)ccc2N1 .
result: -2.92

query: Give the measured ΔTm of CN1CCN(c2ccc(-n3cc(-c4ccncc4OCC4CCNCC4)cn3)cc2)CC1 .
result: -2.76

query: Give the measured ΔTm of COCc1c(-c2cc3cc(C)cc(OC)c3s2)c2c(N)ncnn2c1CN[C@@H]1CCNC1=O .
result: 0.22

###

Target: Transcription intermediary factor 1-alpha (Homo sapiens)
Conditions: Compound concentration 20.0 uM, Protein concentration 2.0 uM, Result type QC Liability
In this section we review reported ΔTm values for a set of compounds.

Study these solved cases before continuing.
[[record]]
compound = "CCOC(=O)N1CCC(CN(Cc2ccc(Cl)cc2)Cc2ccc([N+](=O)[O-])s2)C1 (stereo not drawn)"
system_tested = "Transcription intermediary factor 1-alpha (Homo sapiens)"
observed = "-4.19 °C"

[[record]]
compound = "CCc1nc(-c2cccc(C)c2)c(-c2ccnc(NC(=O)c3ccccc3)c2)s1"
system_tested = "Transcription intermediary factor 1-alpha (Homo sapiens)"
observed = "-1.26 °C"

[[record]]
compound = "O=C(O)Cc1cc(I)c(Oc2ccc(O)c(I)c2)c(I)c1"
system_tested = "Transcription intermediary factor 1-alpha (Homo sapiens)"
observed = "-2.6 °C"

[[record]]
compound = "CCc1cc2c(cc1N1CCC(N3CCOCC3)CC1)C(C)(C)c1[nH]c3cc(C#N)ccc3c1C2=O"
system_tested = "Transcription intermediary factor 1-alpha (Homo sapiens)"
observed = "-0.86 °C"

[[record]]
compound = "COc1cc(-c2cn[nH]c2)ccc1C(=O)Nc1ccc2c(c1)CCNCC2"
system_tested = "Transcription intermediary factor 1-alpha (Homo sapiens)"
observed = "-2.57 °C"

[[record]]
compound = "CC(C)C(=O)N1CCC(c2cn(C)c3ncc(NC(=O)c4cccc(C#N)c4)c(C(F)(F)F)c23)CC1"
system_tested = "Transcription intermediary factor 1-alpha (Homo sapiens)"
observed = "-2.5 °C"


query: Give the measured ΔTm of CN[C@@H](C)C(=O)N[C@H]1CN(C(=O)CC(C)C)CC[C@H]2CC[C@@H](C(=O)NC(c3ccccc3)c3ccccc3)N2C1=O .
result: -2.26 °C

query: Give the measured ΔTm of Fc1ccc(-c2nc(-c3c(F)cccc3F)[nH]c2-c2ccncc2)cc1 .
result: -2.15 °C

###

Molecular target: Transcription intermediary factor 1-alpha (Homo sapiens)
Details: Compound concentration 20.0 uM, Protein concentration 2.0 uM, Result type QC Liability
In this section we review reported ΔTm values for a set of molecules.
Entry rule: numbers only, all in °C.

Study these solved cases before continuing.
[[record]]
molecule = "Cc1ccc(NS(=O)(=O)c2ccc3c(c2)C2C=CCC2C(c2ccc(C(=O)O)cc2)N3)cc1C (stereo unspecified)"
experimental_readout = "ΔTm"
observed = -2.63

[[record]]
molecule = "Cc1nn(-c2nc3ccc(Cl)c(Cl)c3[nH]2)c(O)c1C1OC(=O)c2ccccc21 (stereo unspecified)"
experimental_readout = "ΔTm"
observed = -1.16

[[record]]
molecule = "CC(=O)c1c(C)c2cnc(Nc3ccc(N4CCN(CCOCCOCCOCCNC(=O)COc5cccc6c5C(=O)N(C5CCC(=O)NC5=O)C6=O)CC4)cn3)nc2n(C2CCCC2)c1=O (stereo unspecified)"
experimental_readout = "ΔTm"
observed = 0.27

[[record]]
molecule = "Cc1cc(-c2ccnc(Nc3cnn(C)c3)n2)ccc1CNC(=O)N1CC(OC(C)C)C1"
experimental_readout = "ΔTm"
observed = 0.22

[[record]]
molecule = "CC1CN(CC(=O)N2CC(C)(C)c3nc(CO)c(Cc4ccc(F)cc4)cc32)C(CN2CCOCC2C)CN1 (stereo unspecified)"
experimental_readout = "ΔTm"
observed = -3.23

[[record]]
molecule = "COc1cc(-c2cncc(-c3ccc(N4CCN(C(C)C)CC4)cc3)c2C)cc(F)c1C(N)=O"
experimental_readout = "ΔTm"
observed = -3.06

[[record]]
molecule = "c1ccc2c(c1)SCc1c-2[nH]c2ccccc12"
experimental_readout = "ΔTm"
observed = -7.68

[[record]]
molecule = "CN(C(=O)c1cnn2cccnc12)c1cc2c(cc1N1CCOCC1)C(=O)N(C[C@@H](F)C(C)(C)O)C2"
experimental_readout = "ΔTm"
observed = -2.51


query: Give the measured ΔTm of CN(C)C/C=C/C(=O)Nc1cc2c(Nc3ccc(F)c(Cl)c3)ncnc2cc1OC[C@@H]1CCCO1 .
result: -0.17

query: Give the measured ΔTm of CCc1nc(C2CCC2)n2nc(-c3ccccc3)[nH]c(=O)c12 .
result: 0.37

query: Give the measured ΔTm of COc1ccc(COc2ccc(Cc3cnc(N)nc3N)cc2OC)cc1 .
result: -1.22

query: Give the measured ΔTm of Cc1nn(C)c(COc2ccc(N3CCN(S(=O)(=O)N(C)C)CC3)cc2)c1-c1cccc2c(CCCOc3cccc4ccccc34)c(C(=O)O)n(CCN3CCOCC3)c12 .
result: -0.84

query: Give the measured ΔTm of COCCN(C)c1ccc(NC(=O)/C=C(\C)c2ccc3ccccc3c2)c(C(=O)O)c1 .
result: -0.91

query: Give the measured ΔTm of CN(CCCCCCC1=C(c2cc(F)cc(F)c2)CCCc2cc(O)ccc21)CCCCS(=O)(=O)CCCC(F)(F)F .
result: 1.21

query: Give the measured ΔTm of OC(c1ccc(-c2ccc(CN3CCN(Cc4ccncc4)CC3)cc2)c(F)c1)(C(F)(F)F)C(F)(F)F .
result: -2.91

query: Give the measured ΔTm of COC(=O)c1sccc1S(=O)(=O)Nc1ccc(Nc2ccccc2)cc1OC .
result: 0.59

query: Give the measured ΔTm of Cc1nc2c(cc1F)c(-c1nnc3c(n1)NC(=O)C3(C)C)nn2Cc1cccc(F)c1F .
result: 0.14

query: Give the measured ΔTm of CN1Cc2nccc(-c3cn(C)nc3-c3ccc(F)cc3)c2C1=O .
result: -1.67

query: Give the measured ΔTm of Cc1nsc(Nc2cnc(C(F)(F)F)cn2)c1C(=O)Nc1ccc(O[C@H]2CCCN(CC(F)(F)F)C2)nc1 .
result: -2.89

query: Give the measured ΔTm of CCCCC/C=C/C=C1/C(=O)C=C[C@@H]1C/C=C\CCCC(=O)O .
result: -1.14

query: Give the measured ΔTm of C#Cc1cnc2[nH]cc(-c3cccc4c3CCN4C(=O)[C@@H]3CCCN3C#N)c2c1 .
result: -0.61
